Tested on: SK-MEL-5 melanoma
assayProtocol: NCI tumour cell line growth inhibition, 48 h
Parameter: TGI. Scope: all listed entries.
measurementName: TGI

>>> testresult("Cc1ccc(O)c(Cc2nc3ccccc3nc2-c2cccc(Cl)c2)c1")
"> 100 µM"
>>> testresult("COc1ccc2c(c1)C(=O)c1c-2n(CCCN(C)C)c(=O)c2ccccc12")
"0.406 µM"
>>> testresult("NCCSSCc1ccccc1CSSCCN")
"> 100 µM"
>>> testresult("O=C(O)CSc1n[nH]c(=O)[nH]c1=O")
"> 100 µM"
>>> testresult("CN[C@H]1CN(c2ccc3c(=O)c(C(=O)O)cn(-c4nccs4)c3n2)C[C@@H]1OC")
"2.23 µM"
>>> testresult("CC(=O)Oc1ccccc1")
"> 100 µM"
>>> testresult("CC(C)(O)C(O)COc1c2c(cc3oc(=O)ccc13)OCO2 (stereo unspecified)")
"> 100 µM"
>>> testresult("COc1cc(C2C(Cl)C(=O)N2NC(=O)Cc2ccccc2)cc(Br)c1O (stereo unspecified)")
"> 100 µM"
>>> testresult("NNC(=O)C(=O)N/N=C(\\CCCC(=O)Nc1ccc(Cl)cc1)CC(=O)c1ccc(F)cc1")
"> 100 µM"
>>> testresult("Cc1cc(NC2=CC(=O)C(=O)c3ccccc32)no1")
"6.57 µM"
>>> testresult("COc1cc(/C=C2\\C(=O)N(C(=O)Cc3ccccc3)N=C2C)cc(OC)c1OC")
"> 100 µM"

###

System: RPMI-8226 leukemia
assayProtocol: NCI tumour cell line growth inhibition, 48 h
measurementName: TGI

>>> testresult("CC(=O)Nc1ccc2c3c(cc(O)c2c1)N(C(=O)CCCC(=O)N1CC(CCl)c2c1cc(O)c1cc(NC(C)=O)ccc21)CC3CCl (stereo not given)")
"0.0182 µM"
>>> testresult("CN1C(=O)C2(C)SC1(c1ccccc1)C1C(=O)N(c3ccccc3)C(=O)C12 (stereo not given)")
"> 100 µM"
>>> testresult("Cc1ccc(CC2(C(=O)O)Cc3ccc(C)cc3C2)cc1 (stereo not given)")
"> 100 µM"
>>> testresult("Cc1ccc2c(c1)C(=C(C#N)C#N)CCCS2(=O)=O")
"> 100 µM"
>>> testresult("CCc1ccc(Oc2c(-c3ccc(OCc4ccc(Cl)cc4)cc3O)n[nH]c2C(F)(F)F)cc1")
"5.25 µM"
>>> testresult("CCOC(=O)C(C(=O)OCC)=C1SC(=Nc2ccccc2)C(=Nc2ccccc2)N1c1ccccc1")
"> 100 µM"
>>> testresult("FC1(F)[Se]C2C3CCC(C3)C2C1(F)F (stereo not given)")
"> 100 µM"
>>> testresult("Cc1c2ccccc2c(C2C3C(=O)N(c4ccc(Br)cc4)C(=O)C3ON2C(C(N)=O)c2ccccc2)c2ccccc12 (stereo not given)")
"4.63 µM"
>>> testresult("CC1(C)OC2C(CCP(=O)(O)O)OC(c3nc(C(N)=O)cs3)C2O1 (stereo not given)")
"> 100 µM"
>>> testresult("O=C(O)c1cc(-c2ccc3cc4c(cc3c2)OCO4)nc2ccccc12")
"> 100 µM"

###

Test system: HS 578T breast
assayProtocol: NCI tumour cell line growth inhibition, 48 h
Where a SMILES comes first, the peptide text is derived from it. Bridges are numbered along the chain shown (N, C = ends). [ ]: non-standard residue; d: D form. Aib = CC(C)(N)C(=O)O; βAla = NCCC(=O)O
measurementName: TGI

>>> testresult("Cc1ccc(CC2(C(=O)O)Cc3ccc(C)cc3C2)cc1 (stereo not drawn)")
"> 100 µM"
>>> testresult("CC1CC(N)=C(C#N)C1(C#N)C#N (stereo not drawn)")
"> 100 µM"
>>> testresult("CC[C@H](C)[C@H](NC(=O)[C@H]1CCCCN1C)C(=O)N(C)[C@H](C[C@@H](OC(C)=O)c1cccc(C(=O)N[C@@H](Cc2ccccc2)C[C@H](C)C(=O)OC)n1)C(C)C")
"> 25 µM"
>>> testresult("CNC(=O)c1ccc(N2C(=S)N(c3cnc(C#N)c(C(F)(F)F)c3)C(=O)C23CCC3)cc1F")
"> 100 µM"
>>> testresult("OCC1C(OCc2ccccc2)C(OCc2ccccc2)C(OCc2ccccc2)CN1Cc1ccccc1 (stereo not drawn)")
"> 100 µM"
>>> testresult("O=c1c2c(nc3n1CCS3)[nH]c1cc([N+](=O)[O-])ccc12")
"> 100 µM"
>>> testresult("Cc1ccc2c(c1)C(=C(C#N)C#N)CCCS2(=O)=O")
"> 100 µM"
>>> testresult("C=CN(C(=O)N1CCN(c2cc3c(cc2F)c(=O)c(C(=O)O)cn3C2CC2)CC1)c1nc(-c2ccc(OC)cc2)cs1")
"14.5 µM"
>>> testresult("COc1ccc(C(CC2(c3ccc(OC)cc3)SCCCS2)NC(C)=O)cc1 (stereo not drawn)")
"> 100 µM"
>>> testresult("Cc1nc([N+](=O)[O-])cn1-c1nc2ccccn2c1[N+](=O)[O-]")
"> 100 µM"
>>> testresult("Cc1ccc(C)n1-c1ccccc1C1C=Cn2c(=O)nnc3c(OC(C)C)c(OC(C)C)c(O)c1c32 (stereo not drawn)")
"> 100 µM"
>>> testresult("Cc1ccc(O)c(NC(=O)c2cccc(Nc3ccnc(C(F)(F)F)c3)c2)c1")
"40.3 µM"
>>> testresult("CCCCc1ccc(N=C(N)N)cc1")
"> 100 µM"
>>> testresult("CC1(C)NC(=O)C(NC(=O)C(N)CC(=O)O)CCCCNC(=O)CCNC1=O (stereo not drawn) (H-DK[Aib][βAla]; lactam 2-C; configuration not given here)")
"> 100 µM"
>>> testresult("CC(=O)NC1C(OC(C)C(=O)NC(C)C(=O)NC(CCC(=O)NCCCCCNc2ccc([N+](=O)[O-])c3[nH]c4ccccc4c(=O)c23)C(N)=O)C(O)C(CO)OC1(C)OCc1ccccc1 (stereo not drawn)")
"> 100 µM"
>>> testresult("COc1ccc2ncn(-c3cc(O[C@H](C)c4ccccc4C(F)(F)F)c(C(N)=O)s3)c2c1")
"7.18 µM"
>>> testresult("O=C1NC2c3c(I)sc(I)c3C(=O)C2O1 (stereo not drawn)")
"35.1 µM"
>>> testresult("CCc1ccc(Oc2c(-c3ccc(OCc4ccc(Cl)cc4)cc3O)n[nH]c2C(F)(F)F)cc1")
"8.11 µM"
>>> testresult("CC[C@]12C=CCN3CC[C@@]4(c5cc(N=O)c(OC)cc5N(C)[C@H]4[C@@](O)(C(=O)OC)[C@@H]1OC(C)=O)[C@@H]32")
"> 100 µM"
>>> testresult("Oc1c(Cl)cc(Cl)c(Cl)c1CNCCNCc1c(O)c(Cl)cc(Cl)c1Cl")
"27.9 µM"
>>> testresult("CC1=C(C(=O)OC2CC3CCC2(C)C3(C)C)C2Nc3ccccc3N(C)C2O1 (stereo not drawn)")
"16.3 µM"
>>> testresult("O=C(C=P(c1ccccc1)(c1ccccc1)c1ccccc1)c1ccc(-c2cccs2)cc1")
"49.4 µM"
>>> testresult("O=C1/C(=C/c2cccc(Cl)c2)CCCc2ccccc21")
"32.9 µM"
>>> testresult("CN=C1Nc2ccccc2C(=O)N2CSCC12 (stereo not drawn)")
"> 100 µM"
>>> testresult("CCn1cc2c(=O)n3ncn(-c4ccc(Br)cc4)c3nc2n1")
"> 100 µM"
>>> testresult("CSC1=N/C(=C\\c2ccc(Cl)cc2)C(=O)N1CN1CCCCC1")
"> 100 µM"
>>> testresult("COc1cccc(/C=N/n2c(Cc3ccccc3)n[nH]c2=O)c1")
"50 µM"
>>> testresult("CN1C(=O)C2(C)SC1(c1ccccc1)C1C(=O)N(c3ccccc3)C(=O)C12 (stereo not drawn)")
"> 100 µM"
>>> testresult("C=CCN(c1cc(OC)c(NC(C)=O)cc1[N+](=O)[O-])S(C)(=O)=O")
"> 100 µM"
>>> testresult("CN(C)C(C1=C(O)C(c2ccccc2)N(c2ccccc2)C1=O)N1CCOCC1 (stereo not drawn)")
"> 10 µM"
>>> testresult("CCOC(=O)Cc1csc(NC(NC(=O)OCC)(C(=O)OCC)C(F)(F)F)n1 (stereo not drawn)")
"> 100 µM"
>>> testresult("Oc1c(Br)cc(/C=C/c2ccnc(/C=C/c3cc(Br)c(O)c(Br)c3)c2)cc1Br")
"> 100 µM"
>>> testresult("COc1ccc(N=c2oc3ccccc3cc2C(N)=O)cc1")
"42.9 µM"
>>> testresult("Cc1c(C)c2ccc(OCC(O)COC(C)C)c(C)c2oc1=O (stereo not drawn)")
"> 100 µM"
>>> testresult("CC(C)[N+]([O-])(CCCNc1c2ccccc2nc2cccc([N+](=O)[O-])c12)C(C)C")
"0.402 µM"
>>> testresult("COc1cc(C(=O)NC2CCc3cc(OC)c(OC)c(OC)c3-c3ccc(OC)c(=O)cc32)cc(OC)c1OC (stereo not drawn)")
"> 21.1 µM"
>>> testresult("COc1cc(OC)cc(OCc2nc3cc(C(F)(F)F)ccc3nc2-c2ccccc2)c1")
"> 100 µM"
>>> testresult("C/C=C(\\C)c1cc(=O)c2c(C)cc3c(c2o1)C(=O)c1c(O)c(C2CC(C)(N(C)C)C(OC(C)=O)C(C)O2)cc(C2CC(N(C)C)C(O)C(C)O2)c1C3=O (stereo not drawn)")
"18.6 µM"
